Please go through the items and note down their pIC50.
Assayed system: L-cysteine:1D-myo-inositol 2-amino-2-deoxy-alpha-D-glucopyranoside ligase (Mycobacterium tuberculosis, UniProt P9WJM9)
Sequence (P9WJM9 whole entry): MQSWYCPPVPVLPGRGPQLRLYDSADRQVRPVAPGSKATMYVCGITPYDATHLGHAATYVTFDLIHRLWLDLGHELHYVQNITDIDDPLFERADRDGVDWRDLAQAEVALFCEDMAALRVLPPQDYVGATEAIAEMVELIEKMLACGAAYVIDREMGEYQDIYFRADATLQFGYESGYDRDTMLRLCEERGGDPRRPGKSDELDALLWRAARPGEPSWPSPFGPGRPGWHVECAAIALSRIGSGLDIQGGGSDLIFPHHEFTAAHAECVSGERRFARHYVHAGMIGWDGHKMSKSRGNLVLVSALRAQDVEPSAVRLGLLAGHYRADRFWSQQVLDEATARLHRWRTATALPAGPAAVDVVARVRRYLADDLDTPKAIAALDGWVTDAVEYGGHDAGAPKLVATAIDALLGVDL
Assay notes: Inhibition of Mycobacterium tuberculosis recombinant MshC assessed as production of Cys-GlcN-Ins from cysteine by HPLC based fluorescence assay
One number for each entry, as −log10 of the molar value.

Hello, I would appreciate it if you could give pIC50 for each entry below.
1. O=C(NCCCN1CCOCC1)c1ccc2c(c1)N(Cc1cccc(Cl)c1)C(=O)c1ccccc1[S+]2[O-] (racemic)
2. CCCN(CCC)CCCNC(=O)c1ccc2c(c1)N(Cc1cccc(Cl)c1)C(=O)c1ccccc1[S+]2[O-] (racemic)
3. O=C(NCCCN1CCOCC1)c1ccc2c(c1)N(Cc1cccc(Cl)c1)C(=O)c1ccccc1S2
4. O=C(NCCCN1CCOCC1)c1ccc2c(c1)N(Cc1cccc(Cl)c1)C(=O)c1ccccc1S2(=O)=O

1. 3.30
2. 4.00
3. 3.10
4. 2.52

====

Assayed system: L-cysteine:1D-myo-inositol 2-amino-2-deoxy-alpha-D-glucopyranoside ligase (Mycobacterium tuberculosis, UniProt P9WJM9)
Assay notes: Inhibition of Mycobacterium tuberculosis recombinant MshC assessed as production of Cys-GlcN-Ins from cysteine by HPLC based fluorescence assay
Measured endpoint: IC50 (µM)
One number for each entry, in µM.

Hello, I would appreciate it if you could give IC50 for each entry below.
1. CCC1CCCCN1CCCNC(=O)c1ccc2c(c1)N(Cc1cccc(Cl)c1)C(=O)c1ccccc1[S+]2[O-] (racemic)
2. Cc1ccc(CN2C(=O)c3ccccc3S(=O)(=O)c3ccc(C(=O)NCCCN4CCCC4)cc32)c(C)c1

1. 80
2. 1400

====

Assayed system: L-cysteine:1D-myo-inositol 2-amino-2-deoxy-alpha-D-glucopyranoside ligase (Mycobacterium tuberculosis)
Sequence (P9WJM9 whole entry): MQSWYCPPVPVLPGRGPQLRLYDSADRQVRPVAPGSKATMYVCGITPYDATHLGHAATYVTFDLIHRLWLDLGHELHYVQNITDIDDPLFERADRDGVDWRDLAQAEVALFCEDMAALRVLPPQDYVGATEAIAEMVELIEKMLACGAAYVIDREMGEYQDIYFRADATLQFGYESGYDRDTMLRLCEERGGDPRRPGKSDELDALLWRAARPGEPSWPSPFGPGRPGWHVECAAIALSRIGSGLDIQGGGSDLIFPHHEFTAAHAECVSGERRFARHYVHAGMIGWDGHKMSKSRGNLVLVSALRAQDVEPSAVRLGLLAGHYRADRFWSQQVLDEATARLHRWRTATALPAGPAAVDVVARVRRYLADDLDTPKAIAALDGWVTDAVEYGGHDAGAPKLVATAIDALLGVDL
Assay notes: Inhibition of Mycobacterium tuberculosis recombinant MshC assessed as production of Cys-GlcN-Ins from cysteine by HPLC based fluorescence assay
Measured endpoint: pIC50
Numbers only, as −log10 of the molar value.

Worked examples, 5 compounds total:
CC1CCCN(CCCNC(=O)c2ccc3c(c2)N(Cc2ccccc2F)C(=O)c2ccccc2S3(=O)=O)C1 (stereo not drawn): 3.10
CN(C)CCCNC(=O)c1ccc2c(c1)N(Cc1ccc(Cl)cc1)C(=O)c1ccccc1[S+]2[O-] (racemic): 3.47
CN(CCCNC(=O)c1ccc2c(c1)N(Cc1cccc(Cl)c1)C(=O)c1ccccc1S2)C1CCCCC1: 3.55
O=C(NCCCN1CCCC1)c1ccc2c(c1)N(Cc1cccc(Cl)c1)C(=O)c1ccccc1S2: 3.89
Cc1ccc(CN2C(=O)c3ccccc3[S+]([O-])c3ccc(C(=O)NCCCN(C)C4CCCCC4)cc32)c(C)c1 (racemic): 2.70

// pIC50 value for CN(CCCNC(=O)c1ccc2c(c1)N(Cc1ccccc1)C(=O)c1ccccc1S2(=O)=O)C1CCCCC1 : 3.30
